system: M14 melanoma; assay: NCI-60 one-dose screen, 48 h (100 = growth as untreated, 0 = no growth, -100 = all killed); settings: 10 µM unless noted
Compounds without any hit were thinned out: in the full panel of roughly 83,000, 20% have a hit.
Assign growth to each entry below.
Answers are plain numbers, in %.

[
  {
    "Compound": "Cn1cc(-c2csc(-c3cn(C(=O)OC(C)(C)C)c4ccccc34)n2)c2cccnc21",
    "Unit": "%",
    "growth": 54.8
  },
  {
    "Compound": "COC(c1ccccc1)(c1ccccc1)c1ccccc1",
    "Unit": "%",
    "growth": 136
  },
  {
    "Compound": "COc1cc(-c2cc3ncccc3c3nc(N)c4cccnc4c23)cc(OC)c1OC",
    "Unit": "%",
    "growth": 4.68
  }
]

# batch: return growth for each of the 3 compounds below
1. Oc1cccc2ccc(N/N=C/c3cc(CN4CCCCC4)c(O)c4ncccc34)nc12
2. Nc1c2c(nc3ccc(Br)cc13)CC(c1ccccc1)CC2=O (stereo not given)
3. c1ccc2c(-c3nc(-c4c[nH]c5ncccc45)cs3)c[nH]c2c1

-24.8
17.8
99.8

* * *

tested on: RXF 393 renal; assay: NCI-60 one-dose screen, 48 h (100 = growth as untreated, 0 = no growth, -100 = all killed); settings: 10 µM unless noted
Compounds without any hit were thinned out: in the full panel of roughly 83,000, 20% have a hit.
Assign growth to each entry below.
Answers are plain numbers, in %.

These solved cases illustrate the format of a correct answer.
[
  {
    "Compound": "N=C(N)c1ccc(S(N)(=O)=O)cc1",
    "Unit": "%",
    "growth": 66.7
  },
  {
    "Compound": "CC(C)(C)c1ccc(OCCCCCCCN2CCNCC2)cc1",
    "Unit": "%",
    "growth": 28.2
  },
  {
    "Compound": "COc1cc(C(=O)/C=C/c2cc(-c3ccc4c(c3)OCO4)n[nH]2)cc(OC)c1OC",
    "Unit": "%",
    "growth": 1.1
  },
  {
    "Compound": "Cc1cc2nc3c4cc(O)ccc4n(CCN(C)C)c3nc2cc1C",
    "Unit": "%",
    "growth": -54
  },
  {
    "Compound": "COc1ccc(CCN2C(=O)C(C)(C)SC2=S)cc1OC",
    "Unit": "%",
    "growth": 109
  },
  {
    "Compound": "Cn1cc(-c2csc(-c3cn(CCCN4CCCCC4)c4ccc(F)cc34)n2)c2cccnc21",
    "Unit": "%",
    "growth": 64.9
  }
]

# batch: return growth for each of the 4 compounds below
1. CC1(n2nnnc2N2CCCN(c3ncccc3N)CC2)CCC1
2. COc1cccc(-c2nn(-c3ccccc3)cc2-c2ccnc(NCCNS(=O)(=O)c3ccc(C(F)(F)F)cc3)c2)c1
3. C(=C\c1c[nH]c2ccccc12)/c1ccc2ccccc2n1
4. O=C1C=C(C(O)c2ccc(O)cc2)C(=O)c2ccccc21 (stereo unspecified)

[98.2, -22.2, 92.1, 147]

# return recorded growth for entry Cn1cc(-c2nc(-c3cn(C)c4ncccc34)cs2)c2ccccc21
35.5

* * *

tested on: CAKI-1 renal; experiment: NCI-60 one-dose screen, 48 h (100 = growth as untreated, 0 = no growth, -100 = all killed); details: 10 µM unless noted
The panel holds about 83,000 compounds, 20% with a hit somewhere; the sample as a whole holds those more often.
Measured metric: growth (%)
Answers are plain numbers, in %.

These solved cases illustrate the format of a correct answer.
[
  {
    "Compound": "O=C(/C=C/c1ccc2ccccc2c1)Nc1ncc(Cc2ccccc2)s1",
    "Measured metric": "growth",
    "Reading": 45.1
  },
  {
    "Compound": "COC(=O)[C@]12CC[C@@H](C)[C@H](C)[C@@H]1C1=CC[C@@H]3[C@@](C)(CC#N)C4=C(C[C@@]3(C)[C@]1(C)CC2)OC[C@]4(C)C=O",
    "Measured metric": "growth",
    "Reading": 9.24
  },
  {
    "Compound": "COc1ccc2c(c1)c1nc3cc(C)c(C)cc3nc1n2CCN(C)C",
    "Measured metric": "growth",
    "Reading": 4.98
  },
  {
    "Compound": "COc1ccc(-c2cc(/C=C/C(=O)c3ccc(OC)c(OC)c3)[nH]n2)cc1",
    "Measured metric": "growth",
    "Reading": 62.8
  },
  {
    "Compound": "NC(=O)NCC1CCCCC1",
    "Measured metric": "growth",
    "Reading": 89.3
  },
  {
    "Compound": "C=C(C)[C@@H]1CC[C@]2(C)[C@H](CC=C3[C@@H]4CC(C)(C)CC[C@]4(C(=O)OC)CC[C@]32C)[C@@]1(C)CC/C(N)=N/O",
    "Measured metric": "growth",
    "Reading": 37
  },
  {
    "Compound": "O=c1[nH]ncc(Br)c1Br",
    "Measured metric": "growth",
    "Reading": 86.4
  },
  {
    "Compound": "COc1ccc(C2(Cl)c3ccccc3N(c3ccccc3)c3ccccc32)cc1",
    "Measured metric": "growth",
    "Reading": 7.42
  },
  {
    "Compound": "Cc1ccc2c(c1)c1nc3cc(C)c(C)cc3nc1n2CCN(C)C",
    "Measured metric": "growth",
    "Reading": 2.44
  },
  {
    "Compound": "CN(C)c1ccc(C(=O)c2ccc(N(C)C)c(N)c2)cc1N",
    "Measured metric": "growth",
    "Reading": 41
  }
]

# batch: return growth for each of the 4 compounds below
1. CC1(C)CC[C@]2(CO)CC[C@]3(C)C(=CC[C@@H]4[C@@]5(C)CC[C@H](NCO)C(C)(C)[C@@H]5CC[C@]43C)[C@@H]2C1
2. COc1cc(/C=C/c2cc(/C=C/c3ccc(O)c(OC)c3)n(-c3ccccc3)c(=O)n2)ccc1O
3. c1ccc(CN2C(c3ccccc3)=Nc3ccccc3C2c2c[nH]c3ccccc23)cc1 (stereo unspecified)
4. CCc1ccc(-c2ccc(Nc3ccccc3)nn2)cc1S(N)(=O)=O

[-71.9, 83.7, 35.9, 92.6]
